# protocol-summary: In vivo inhibition of caspase like 20S proteasome
# Format: organism-based
readout-name: IC50

Answered cases to consult:
{"columns": ["compound-string", "measured"],
 "data": [
  ["CCOC(=O)/C=C/[C@H]1Cc2ccccc2CN1C(=O)[C@H](CC(C)C)NC(=O)[C@H](CC(C)C)NC(=O)c1cccc(O)c1C", "2.05 µM"],
  ["CCOC(=O)/C(=C/c1ccccc1)NC(=O)[C@H](CO)NC(=O)[C@@H](NC(=O)c1cccc(O)c1C)C(C)C", "> 10 µM"],
  ["CCOC(=O)/C=C/[C@H]1Cc2ccccc2CN1C(=O)[C@H](CC(C)C)NC(=O)[C@H](CC(C)C)NC(=O)[C@H](CC(C)C)NC(=O)c1cccc(O)c1C", "1.41 µM"]
]}

Which IC50 reading was recorded for the compound `CCOC(=O)/C=C/[C@H](CC(C)C)NC(=O)[C@H](CO)NC(=O)[C@@H](NC(=O)c1cccc(O)c1C)C(C)C` ?
> 10 µM

Which IC50 reading was recorded for the compound `CCOC(=O)/C(=C/c1ccccc1)NC(=O)[C@H](CC(C)C)NC(=O)[C@H](CC(C)C)NC(=O)c1cccc(O)c1C` ?
> 10 µM

Which IC50 reading was recorded for the compound `CCOC(=O)/C(=C/c1ccccc1)NC(=O)[C@H](CC(C)C)NC(=O)[C@H](CC(C)C)NC(=O)[C@H](CC(C)C)NC(=O)c1cccc(O)c1C` ?
> 10 µM

Which IC50 reading was recorded for the compound `CCOC(=O)/C(=C/c1ccccc1)NC(=O)[C@H](CC(C)C)NC(=O)[C@H](CO)NC(=O)[C@@H](NC(=O)c1cccc(O)c1C)C(C)C` ?
> 10 µM
